target under test: α-glucosidase from baker's yeast
assay procedure: α-Glucosidase inhibitory assay (PNP-G substrate) and kinetic analysis
Assay type: biochemical, S. cerevisiae
setup conditions: α-glucosidase IC50 in Table 2; read-out: IC50
assay readout: IC50 (nM)
Your answer should be a plain number; it is taken to be in nM.

Notebook: `C[C@H]1[C@H](C)CC[C@]2(C(=O)O)CC[C@]3(C)C(=CC[C@@H]4[C@@]5(C)CC[C@H](O)C(C)(C)[C@@H]5CC[C@]43C)[C@H]12` , IC50 read as 1080

Notebook: `CC1(C)CC[C@]2(C)CC[C@]3(C)C(=CC[C@@H]4[C@@]5(C)CC[C@H](O)C(C)(C)[C@@H]5CC[C@]43C)[C@@H]2C1` , IC50 read as 20

Notebook: `C=C(C)[C@@H]1CC[C@]2(C(=O)O)CC[C@]3(C)[C@H](CC[C@@H]4[C@@]5(C)CC[C@H](O)C(C)(C)[C@@H]5CC[C@]43C)[C@@H]12` , IC50 read as 2370

Notebook: `CC1(C)CC[C@]2(C(=O)O)CC[C@]3(C)C(=CC[C@@H]4[C@@]5(C)CC[C@H](O)C(C)(C)[C@@H]5CC[C@]43C)[C@@H]2C1` , IC50 read as 980

Notebook: `C[C@H]1[C@H](C)CC[C@]2(C)CC[C@]3(C)C(=CC[C@@H]4[C@@]5(C)CC[C@H](O)C(C)(C)[C@@H]5CC[C@]43C)[C@H]12` , IC50 read as 1450
